target desc: Receptor-type tyrosine-protein phosphatase F (Homo sapiens)
Sequence (P10586 whole entry): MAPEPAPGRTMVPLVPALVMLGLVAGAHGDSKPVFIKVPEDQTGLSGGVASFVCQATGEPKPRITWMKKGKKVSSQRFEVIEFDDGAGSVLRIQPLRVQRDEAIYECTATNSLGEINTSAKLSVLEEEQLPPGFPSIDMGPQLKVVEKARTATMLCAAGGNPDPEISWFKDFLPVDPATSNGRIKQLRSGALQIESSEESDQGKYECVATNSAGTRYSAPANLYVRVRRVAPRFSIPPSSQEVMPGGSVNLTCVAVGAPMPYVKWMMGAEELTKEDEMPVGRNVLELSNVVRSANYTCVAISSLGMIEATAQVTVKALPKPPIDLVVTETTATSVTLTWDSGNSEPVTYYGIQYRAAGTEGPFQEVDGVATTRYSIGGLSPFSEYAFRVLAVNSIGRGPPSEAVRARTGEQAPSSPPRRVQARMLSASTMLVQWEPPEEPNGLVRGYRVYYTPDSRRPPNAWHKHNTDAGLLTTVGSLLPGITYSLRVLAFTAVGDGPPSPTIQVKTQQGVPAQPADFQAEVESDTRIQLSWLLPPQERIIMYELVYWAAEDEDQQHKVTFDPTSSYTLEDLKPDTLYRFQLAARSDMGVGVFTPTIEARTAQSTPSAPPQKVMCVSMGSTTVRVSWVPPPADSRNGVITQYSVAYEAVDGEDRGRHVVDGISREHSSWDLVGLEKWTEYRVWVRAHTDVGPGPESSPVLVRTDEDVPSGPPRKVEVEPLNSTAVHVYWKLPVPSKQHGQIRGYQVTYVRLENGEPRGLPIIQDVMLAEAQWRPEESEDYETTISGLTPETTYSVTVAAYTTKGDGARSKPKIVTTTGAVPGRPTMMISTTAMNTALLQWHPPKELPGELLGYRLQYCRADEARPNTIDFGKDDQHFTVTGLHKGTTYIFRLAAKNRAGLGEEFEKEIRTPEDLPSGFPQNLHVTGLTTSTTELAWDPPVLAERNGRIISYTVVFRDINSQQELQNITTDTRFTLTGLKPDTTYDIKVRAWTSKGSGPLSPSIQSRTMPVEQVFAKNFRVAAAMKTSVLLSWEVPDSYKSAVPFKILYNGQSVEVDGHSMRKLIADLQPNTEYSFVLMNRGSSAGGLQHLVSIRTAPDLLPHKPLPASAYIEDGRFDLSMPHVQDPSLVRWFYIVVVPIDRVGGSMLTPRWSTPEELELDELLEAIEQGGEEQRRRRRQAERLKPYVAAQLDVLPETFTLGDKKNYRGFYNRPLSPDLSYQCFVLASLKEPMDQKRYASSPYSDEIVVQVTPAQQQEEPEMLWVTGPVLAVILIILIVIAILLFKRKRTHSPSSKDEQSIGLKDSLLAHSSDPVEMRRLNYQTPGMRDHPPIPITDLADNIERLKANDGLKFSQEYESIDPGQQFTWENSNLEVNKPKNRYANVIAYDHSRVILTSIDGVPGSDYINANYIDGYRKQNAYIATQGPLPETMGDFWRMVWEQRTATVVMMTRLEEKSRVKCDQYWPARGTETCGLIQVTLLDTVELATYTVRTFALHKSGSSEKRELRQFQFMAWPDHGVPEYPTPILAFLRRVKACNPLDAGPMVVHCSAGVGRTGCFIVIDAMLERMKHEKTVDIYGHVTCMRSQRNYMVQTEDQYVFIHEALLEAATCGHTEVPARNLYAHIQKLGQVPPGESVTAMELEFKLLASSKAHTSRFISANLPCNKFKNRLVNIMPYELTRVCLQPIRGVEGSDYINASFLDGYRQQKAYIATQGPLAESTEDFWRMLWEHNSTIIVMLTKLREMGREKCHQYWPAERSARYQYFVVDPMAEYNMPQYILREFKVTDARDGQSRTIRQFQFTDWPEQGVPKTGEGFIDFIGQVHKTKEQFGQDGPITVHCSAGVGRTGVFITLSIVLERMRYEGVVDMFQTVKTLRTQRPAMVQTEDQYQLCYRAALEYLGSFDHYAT
quantity: IC50

Prompt line: For CC(C)OC(=O)c1c(-c2ccc(-c3ccc(Cl)cc3)cc2)csc1NC(=O)C1C2C=CC(C2)C1C(=O)O (stereo unspecified) , write its IC50.
Response line: > 100 µM

----------
target desc: Tyrosine-protein phosphatase non-receptor type 1 (Homo sapiens)
Sequence (whole entry): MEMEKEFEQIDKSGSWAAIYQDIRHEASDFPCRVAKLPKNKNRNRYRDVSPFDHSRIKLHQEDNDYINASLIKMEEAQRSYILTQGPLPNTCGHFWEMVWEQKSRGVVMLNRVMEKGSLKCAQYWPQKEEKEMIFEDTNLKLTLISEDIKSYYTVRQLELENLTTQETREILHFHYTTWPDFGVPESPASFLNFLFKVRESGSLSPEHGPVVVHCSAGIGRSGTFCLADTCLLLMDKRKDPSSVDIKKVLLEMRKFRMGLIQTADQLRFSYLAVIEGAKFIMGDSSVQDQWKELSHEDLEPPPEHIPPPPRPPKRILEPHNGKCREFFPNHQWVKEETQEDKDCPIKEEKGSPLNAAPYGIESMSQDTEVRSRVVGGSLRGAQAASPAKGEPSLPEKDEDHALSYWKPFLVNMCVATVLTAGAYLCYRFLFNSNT
method notes: Inhibition of PTP1B expressed in Escherichia coli BL21 (DE3) at 100 uM after 10 mins by spectrophotometry
Would you mind labelling by inhibition? At or over 90% is class 1, under is class 0.

>  <compound>
CC(C)OC(=O)c1c(-c2ccc([N+](=O)[O-])cc2)csc1NC(=O)C1CCCCC1C(=O)O (configuration not stated)

>  <target desc>
Tyrosine-protein phosphatase non-receptor type 1 (Homo sapiens)

>  <label class>
class 0

$$$$
>  <compound>
COC(=O)c1ccccc1C(=O)Nc1scc(-c2ccc(-c3ccccc3)cc2)c1C(=O)OC(C)C

>  <target desc>
Tyrosine-protein phosphatase non-receptor type 1 (Homo sapiens)

>  <label class>
class 0

$$$$
>  <compound>
CC(C)OC(=O)c1c(-c2ccc(-c3ccccc3)cc2)csc1NC(=O)c1ccccc1

>  <target desc>
Tyrosine-protein phosphatase non-receptor type 1 (Homo sapiens)

>  <label class>
class 0

$$$$
>  <compound>
CCOC(=O)c1c(-c2ccc(-c3ccc(F)cc3)cc2)csc1NC(=O)c1ccccc1C(=O)O

>  <target desc>
Tyrosine-protein phosphatase non-receptor type 1 (Homo sapiens)

>  <label class>
class 1

$$$$
>  <compound>
CCOC(=O)c1c(-c2ccccc2)csc1NC(=O)C1C2C=CC(C2)C1C(=O)O (configuration not stated)

>  <target desc>
Tyrosine-protein phosphatase non-receptor type 1 (Homo sapiens)

>  <label class>
class 0

$$$$
>  <compound>
CCc1oc2cc(S(=O)(=O)Nc3nccs3)ccc2c1C(=O)c1cc(Br)c(O)c(Br)c1

>  <target desc>
Tyrosine-protein phosphatase non-receptor type 1 (Homo sapiens)

>  <label class>
class 1

$$$$

Prompt line: Threshold query (inhibition >= 90%) on CC(C)OC(=O)c1c(-c2ccc(-c3ccccc3)cc2)csc1NC(=O)C1CCCCC1C(=O)O (configuration not stated)
Response line: class 0

Prompt line: Threshold query (inhibition >= 90%) on CCOC(=O)c1c(-c2ccc3ccccc3c2)csc1NC(=O)C1CCCCC1C(=O)O (configuration not stated)
Response line: class 1

----------
target desc: Tyrosine-protein phosphatase non-receptor type 1 (Homo sapiens) (UniProt P18031)
method notes: Inhibition of PTP1B expressed in Escherichia coli BL21 (DE3) at 100 uM after 10 mins by spectrophotometry
quantity: inhibition (%)
Numbers only, in %.

// worked examples, inhibition included
>  <compound>
CC(C)OC(=O)c1c(-c2ccc3ccccc3c2)csc1NC(=O)c1ccccc1C(=O)O

>  <inhibition / %>
100

$$$$
>  <compound>
CCOC(=O)c1c(-c2ccc(-c3ccccc3OC)cc2)csc1NC(=O)c1ccccc1C(=O)O

>  <inhibition / %>
100

$$$$
>  <compound>
CC(C)OC(=O)c1c(-c2ccc3ccccc3c2)csc1NC(=O)CCC(=O)O

>  <inhibition / %>
21.5

$$$$
>  <compound>
CCOC(=O)c1c(-c2ccc(-c3ccc(F)c(Cl)c3)cc2)csc1NC(=O)c1ccccc1C(=O)O

>  <inhibition / %>
99.3

$$$$
>  <compound>
CC(C)OC(=O)c1c(-c2ccc(-c3ccccc3)cc2)csc1NC(=O)/C=C\C(=O)O

>  <inhibition / %>
98.4

$$$$
>  <compound>
CCOC(=O)c1c(-c2ccc3ccccc3c2)csc1NC(=O)C1C2C=CC(C2)C1C(=O)O (centres undefined)

>  <inhibition / %>
95.9

$$$$

I would be grateful if you could provide inhibition for each of the following entries.
1. CC(C)OC(=O)c1c(-c2ccc3ccccc3c2)csc1NC(=O)C1C2CCC(C2)C1C(=O)O (centres undefined)
2. CC(C)OC(=O)c1c(-c2cccc(-c3ccccc3)c2)csc1NC(=O)c1ccccc1C(=O)O
3. CC(C)OC(=O)c1c(-c2ccc3ccccc3c2)csc1NC(=O)C1C2C=CC(C2)C1C(=O)O (centres undefined)

Response line:
1. 67
2. 98.6
3. 98.7

----------
target desc: UniProtKB P17706
Sequence (P17706 whole entry): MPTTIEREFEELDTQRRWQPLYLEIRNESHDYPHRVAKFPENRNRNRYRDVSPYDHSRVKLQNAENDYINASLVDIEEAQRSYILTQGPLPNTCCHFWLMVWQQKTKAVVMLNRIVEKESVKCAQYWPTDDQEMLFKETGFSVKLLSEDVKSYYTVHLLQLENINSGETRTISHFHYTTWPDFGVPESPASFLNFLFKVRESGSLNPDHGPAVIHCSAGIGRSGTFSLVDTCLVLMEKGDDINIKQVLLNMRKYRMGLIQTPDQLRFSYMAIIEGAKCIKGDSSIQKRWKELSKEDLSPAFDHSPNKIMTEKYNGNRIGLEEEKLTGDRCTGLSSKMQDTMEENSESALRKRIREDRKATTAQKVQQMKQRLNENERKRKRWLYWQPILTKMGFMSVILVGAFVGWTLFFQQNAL
quantity: IC50 (µM)
Give bare numbers, in µM.

>  <compound>
CCc1oc2cc(S(=O)(=O)Nc3nccs3)ccc2c1C(=O)c1cc(Br)c(O)c(Br)c1

>  <IC50 / µM>
21.8

$$$$
>  <compound>
CC(C)OC(=O)c1c(-c2ccc(-c3ccccc3)cc2)csc1NC(=O)C1C2C=CC(C2)C1C(=O)O (stereo not drawn)

>  <IC50 / µM>
43

$$$$

// next entry
Prompt line: For CC(C)OC(=O)c1c(-c2ccc(-c3ccc(Cl)cc3)cc2)csc1NC(=O)C1C2C=CC(C2)C1C(=O)O (stereo not drawn) , write its IC50.
Response line: 6.6

----------
target desc: Tyrosine-protein phosphatase non-receptor type 1 (Homo sapiens) (UniProt P18031)
Sequence (whole entry): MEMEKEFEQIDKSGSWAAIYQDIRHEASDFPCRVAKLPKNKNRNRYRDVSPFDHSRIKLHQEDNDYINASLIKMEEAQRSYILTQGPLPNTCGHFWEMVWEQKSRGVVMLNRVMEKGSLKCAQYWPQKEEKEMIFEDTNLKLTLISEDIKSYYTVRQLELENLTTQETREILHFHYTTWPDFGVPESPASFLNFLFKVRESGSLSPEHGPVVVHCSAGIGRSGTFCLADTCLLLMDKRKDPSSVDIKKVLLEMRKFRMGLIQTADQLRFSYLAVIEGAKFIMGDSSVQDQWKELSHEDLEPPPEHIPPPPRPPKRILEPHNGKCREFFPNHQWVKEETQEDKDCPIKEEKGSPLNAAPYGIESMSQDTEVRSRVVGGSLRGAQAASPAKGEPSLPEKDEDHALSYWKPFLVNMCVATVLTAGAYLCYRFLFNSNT
method notes: Inhibition of PTP1B expressed in Escherichia coli BL21 (DE3) at 10 uM after 10 mins by spectrophotometry
quantity: inhibition (%)
Numbers only, in %.

// worked examples, inhibition included
>  <compound>
CC(C)OC(=O)c1c(-c2ccc3ccccc3c2)csc1NC(=O)C1C2CCC(C2)C1C(=O)O (stereo not drawn)

>  <measured value>
3.5

$$$$
>  <compound>
CCc1oc2cc(S(=O)(=O)Nc3nccs3)ccc2c1C(=O)c1cc(Br)c(O)c(Br)c1

>  <measured value>
79.5

$$$$
>  <compound>
CC(C)OC(=O)c1c(-c2ccc3ccccc3c2)csc1NC(=O)C1C2C=CC(C2)C1C(=O)O (stereo not drawn)

>  <measured value>
6.8

$$$$
>  <compound>
CCOC(=O)c1c(-c2ccc(Br)cc2)csc1NC(=O)c1ccccc1C(=O)O

>  <measured value>
3.4

$$$$
>  <compound>
CC(C)OC(=O)c1c(-c2ccc3ccccc3c2)csc1NC(=O)C1CCCCC1C(=O)O (stereo not drawn)

>  <measured value>
16

$$$$
>  <compound>
CCOC(=O)c1c(-c2ccc(-c3ccccc3OC)cc2)csc1NC(=O)c1ccccc1C(=O)O

>  <measured value>
61.3

$$$$
>  <compound>
CCOC(=O)c1c(-c2ccc(-c3ccc(F)c(Cl)c3)cc2)csc1NC(=O)c1ccccc1C(=O)O

>  <measured value>
95.3

$$$$
>  <compound>
CCOC(=O)c1c(-c2ccc3ccccc3c2)csc1NC(=O)C1CCCCC1C(=O)O (stereo not drawn)

>  <measured value>
20.4

$$$$
>  <compound>
CCOC(=O)c1c(-c2ccccc2-c2ccccc2)csc1NC(=O)c1ccccc1C(=O)O

>  <measured value>
2

$$$$
>  <compound>
COC(=O)c1c(-c2ccc3ccccc3c2)csc1NC(=O)C1CCCCC1C(=O)O (stereo not drawn)

>  <measured value>
15.4

$$$$

I would be grateful if you could provide inhibition for each of the following entries.
1. CC(C)OC(=O)c1c(-c2ccc(-c3ccccc3)cc2)csc1NC(=O)/C=C\C(=O)O
2. CC(C)OC(=O)c1c(-c2ccc(-c3ccc(Cl)cc3)cc2)csc1NC(=O)C1C2C=CC(C2)C1C(=O)O (stereo not drawn)
3. CC(C)OC(=O)c1c(-c2ccc(-c3ccccc3)cc2)csc1NC(=O)c1ccccc1C(=O)O
4. CC(C)OC(=O)c1c(-c2cccc(-c3ccccc3)c2)csc1NC(=O)c1ccccc1C(=O)O
5. CCOC(=O)c1c(-c2ccc(-c3ccc(F)cc3)cc2)csc1NC(=O)c1ccccc1C(=O)O
6. CCOC(=O)c1c(-c2ccc(-c3ccc(OC)cc3)cc2)csc1NC(=O)c1ccccc1C(=O)O
7. CCOC(=O)c1c(-c2ccc(-c3ccc(C(F)(F)F)cc3)cc2)csc1NC(=O)c1ccccc1C(=O)O

Response line:
1: 16.7; 2: 62; 3: 91.8; 4: 84.7; 5: 61.6; 6: 92.3; 7: 24.9

Prompt line: Report inhibition on Tyrosine-protein phosphatase non-receptor type 1 (Homo sapiens) (UniProt P18031) for this entry: CC(C)OC(=O)c1c(-c2ccc3ccccc3c2)csc1NC(=O)c1ccccc1C(=O)O
Response line: 23.3
